molecular target: recombinant human GREM1 (hGREM1-His; C-terminal 10His tagged, R&D, #5190-GR) (human) (UniProt O60565); experiment: BLI Octet, captured mAb, 100 nM GREM1
Sequence (O60565 other isoform, or with tags, fused parts or gaps limits assumed, form in doubt): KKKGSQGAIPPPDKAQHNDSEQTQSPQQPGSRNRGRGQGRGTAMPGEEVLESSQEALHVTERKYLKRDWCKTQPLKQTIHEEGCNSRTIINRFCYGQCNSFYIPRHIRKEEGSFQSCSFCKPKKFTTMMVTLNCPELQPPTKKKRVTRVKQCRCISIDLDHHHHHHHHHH
Attribute Measured: Binding Signal with 300 sec Association (nm)
Just the number in nm, nothing appended.

| Binder | Units | Quantitative Readout |
| --- | --- | --- |
| H4H6270P (antibody, human IgG4, V domains shown) VH: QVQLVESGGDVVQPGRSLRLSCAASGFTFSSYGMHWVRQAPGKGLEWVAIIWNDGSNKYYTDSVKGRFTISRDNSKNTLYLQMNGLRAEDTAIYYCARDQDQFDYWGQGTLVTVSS VL: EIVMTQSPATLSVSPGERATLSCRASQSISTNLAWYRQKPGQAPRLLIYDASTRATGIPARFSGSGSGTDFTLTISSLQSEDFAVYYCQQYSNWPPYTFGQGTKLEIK | nm | 0.39 |

Could you tell me which Binding Signal with 300 sec Association (nm) is on file for H4H6246P (antibody, human IgG4, V domains shown) VH: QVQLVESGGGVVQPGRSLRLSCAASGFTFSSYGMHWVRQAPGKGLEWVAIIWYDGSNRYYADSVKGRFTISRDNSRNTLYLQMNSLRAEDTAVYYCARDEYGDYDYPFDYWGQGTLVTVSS VL: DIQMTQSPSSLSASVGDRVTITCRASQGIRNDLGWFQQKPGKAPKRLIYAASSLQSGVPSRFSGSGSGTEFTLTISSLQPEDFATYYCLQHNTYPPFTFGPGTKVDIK ?
0.38

Endpoint output: Binding Signal with 300 sec Association (nm) of H4H2926N (antibody, human IgG4, V domains shown) VH: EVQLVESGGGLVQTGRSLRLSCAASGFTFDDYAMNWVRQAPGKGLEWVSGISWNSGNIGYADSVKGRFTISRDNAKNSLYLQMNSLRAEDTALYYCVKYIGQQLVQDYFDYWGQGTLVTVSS VL: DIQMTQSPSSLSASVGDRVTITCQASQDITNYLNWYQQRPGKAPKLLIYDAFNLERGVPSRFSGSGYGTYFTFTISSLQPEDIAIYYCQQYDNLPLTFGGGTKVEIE . Value?
0.49
